- tested.system: Insulin receptor (Homo sapiens) (UniProt P06213);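 also: each figure is a mean inhibition value from the GSK PKIS screening panel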
- Sequence (P06213 28-758 limits assumed): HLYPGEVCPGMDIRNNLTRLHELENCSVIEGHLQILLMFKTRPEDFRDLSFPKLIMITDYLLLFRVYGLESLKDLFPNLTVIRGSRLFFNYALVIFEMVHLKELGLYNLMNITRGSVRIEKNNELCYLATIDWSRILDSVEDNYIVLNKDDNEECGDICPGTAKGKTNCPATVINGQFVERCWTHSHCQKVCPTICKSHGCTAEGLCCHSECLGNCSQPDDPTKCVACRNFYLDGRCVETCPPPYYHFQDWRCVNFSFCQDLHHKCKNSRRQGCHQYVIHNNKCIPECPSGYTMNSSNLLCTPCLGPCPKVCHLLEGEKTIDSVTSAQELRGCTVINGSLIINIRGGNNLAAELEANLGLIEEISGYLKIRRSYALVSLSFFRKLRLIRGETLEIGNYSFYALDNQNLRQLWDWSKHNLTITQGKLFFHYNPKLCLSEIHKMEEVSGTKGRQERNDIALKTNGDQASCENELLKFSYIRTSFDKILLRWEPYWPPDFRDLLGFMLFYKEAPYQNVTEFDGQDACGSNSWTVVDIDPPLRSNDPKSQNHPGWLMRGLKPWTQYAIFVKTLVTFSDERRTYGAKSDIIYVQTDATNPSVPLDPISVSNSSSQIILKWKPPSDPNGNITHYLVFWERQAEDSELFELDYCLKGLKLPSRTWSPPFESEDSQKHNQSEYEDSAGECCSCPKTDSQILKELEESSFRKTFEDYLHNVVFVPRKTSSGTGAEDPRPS
- Sequence (P06213 763-1382 limits assumed): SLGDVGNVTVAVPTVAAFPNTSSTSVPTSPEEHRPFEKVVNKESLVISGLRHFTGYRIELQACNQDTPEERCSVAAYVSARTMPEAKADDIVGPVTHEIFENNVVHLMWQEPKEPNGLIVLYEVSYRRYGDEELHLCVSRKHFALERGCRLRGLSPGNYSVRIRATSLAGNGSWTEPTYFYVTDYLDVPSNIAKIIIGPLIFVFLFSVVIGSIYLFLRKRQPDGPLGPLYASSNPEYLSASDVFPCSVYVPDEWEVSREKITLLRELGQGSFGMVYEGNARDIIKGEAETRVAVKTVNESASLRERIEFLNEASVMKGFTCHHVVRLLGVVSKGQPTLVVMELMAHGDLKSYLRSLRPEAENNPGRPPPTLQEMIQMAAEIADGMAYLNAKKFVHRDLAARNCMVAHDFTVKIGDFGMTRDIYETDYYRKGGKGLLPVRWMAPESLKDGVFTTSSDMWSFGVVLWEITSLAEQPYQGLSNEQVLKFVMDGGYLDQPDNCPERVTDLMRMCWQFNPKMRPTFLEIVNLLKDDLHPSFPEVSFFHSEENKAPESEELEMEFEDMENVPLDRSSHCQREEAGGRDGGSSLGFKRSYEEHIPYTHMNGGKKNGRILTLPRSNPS
- test.parameters: at 1 µM
Consider the following compounds; for each one, report its inhibition.
Quick reminder: number only, in %, skip the unit.

Query: Need inhibition of COc1ccc2ncn(-c3cc(O[C@H](C)c4ccccc4Cl)c(C(N)=O)s3)c2c1 , thanks.
Result: 3.79

Query: Return reported inhibition; argument: NC(=O)c1cc(-c2ccc(F)cc2)cc(-c2ccncc2)c1N
Result: 5.27

Query: If you can, please state the reported inhibition value of O=C(Nc1n[nH]c2nc(-c3ccc(O)cc3)c(Br)cc12)C1CC1 .
Result: 6.22

Query: What value of inhibition has been reported for the following compound? COc1ccc(C2=C(N3CCc4ccccc43)C(=O)NC2=O)cc1
Result: 8.59

Query: Record request: inhibition value, item COc1cc(Nc2ncc(-c3ccccc3)o2)cc(OC)c1OC
Result: -0.22

Query: Which inhibition is listed for CN(C)c1ccc2c(c1)/C(=C/Nc1ccc(S(N)(=O)=O)cc1)C(=O)N2 ?
Result: 6.31

Query: Please give the measured inhibition for this compound: COc1ccc2cc(-c3c(-c4ccncc4)nc(-c4ccc([S+](C)[O-])cc4C)n3C)ccc2c1 (centres undefined)
Result: 2.57

Query: Reported inhibition for CS(=O)(=O)CCNCc1ccc(-c2ccc3ncnc(Nc4ccc(OCc5ccccc5)c(Br)c4)c3c2)o1 : what is it?
Result: 1.17

Query: May I ask what inhibition has been recorded for O=C1Nc2ccc(I)cc2C1=Cc1cc(Br)c(O)c(Br)c1 ?
Result: 5.95

Query: # query: inhibition of entry CS(=O)(=O)CCNCc1cc(-c2cc3c(Nc4ccc(OCc5cccc(F)c5)c(Cl)c4)ncnc3s2)cs1
Result: 4.74

Query: Record request: inhibition value, item C#Cc1cccc(Nc2ncnc3ccc(OCCCCNCCS(C)(=O)=O)cc23)c1
Result: 4.34

Query: Form field: reported inhibition of NS(=O)(=O)c1ccc(Nc2cc(-c3ccc(O)c(F)c3)n[nH]2)cc1
Result: 2.77

Query: Request the reported inhibition associated with NS(=O)(=O)c1ccc(N/N=C2\C(=O)Nc3ccc(-c4cnco4)cc32)cc1
Result: 7.36

Query: So what does the record say about inhibition for c1ccc(-c2n[nH]cc2-c2ccnc(-c3ccc(OCCN4CCOCC4)cc3)c2)nc1 ?
Result: -1.85

Query: # input compound: C/C(Nc1ccc(S(N)(=O)=O)cc1)=C1/C(=O)Nc2ccccc21 ; wanted: its inhibition
Result: 12.7

Query: Entry CNC(=O)c1cncc(/C=C/c2c(C)cccc2C)c1 : reported inhibition = ?
Result: 4.95

Query: # get_value(readout='inhibition', item= COC(=O)Nc1nc2ccc(Sc3ccc(NC(=O)Nc4cc(C(F)(F)F)ccc4F)cc3)cc2[nH]1 )
Result: -0.75

Query: Given Fc1ccc(-c2ncn(CCCN3CCOCC3)c2-c2ccncc2)cc1 , state its recorded inhibition.
Result: 0.12

Query: # inhibition lookup, item COc1cccc(/C=N/Nc2ncnc3c2cnn3-c2cccc(OC)c2)c1
Result: 3.35

---

- tested.system: Muscle, skeletal receptor tyrosine-protein kinase (Homo sapiens) (UniProt O15146);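 also: values are mean inhibition of MuSK from the GSK PKIS kinase screening panel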
- Sequence (O15146 whole entry): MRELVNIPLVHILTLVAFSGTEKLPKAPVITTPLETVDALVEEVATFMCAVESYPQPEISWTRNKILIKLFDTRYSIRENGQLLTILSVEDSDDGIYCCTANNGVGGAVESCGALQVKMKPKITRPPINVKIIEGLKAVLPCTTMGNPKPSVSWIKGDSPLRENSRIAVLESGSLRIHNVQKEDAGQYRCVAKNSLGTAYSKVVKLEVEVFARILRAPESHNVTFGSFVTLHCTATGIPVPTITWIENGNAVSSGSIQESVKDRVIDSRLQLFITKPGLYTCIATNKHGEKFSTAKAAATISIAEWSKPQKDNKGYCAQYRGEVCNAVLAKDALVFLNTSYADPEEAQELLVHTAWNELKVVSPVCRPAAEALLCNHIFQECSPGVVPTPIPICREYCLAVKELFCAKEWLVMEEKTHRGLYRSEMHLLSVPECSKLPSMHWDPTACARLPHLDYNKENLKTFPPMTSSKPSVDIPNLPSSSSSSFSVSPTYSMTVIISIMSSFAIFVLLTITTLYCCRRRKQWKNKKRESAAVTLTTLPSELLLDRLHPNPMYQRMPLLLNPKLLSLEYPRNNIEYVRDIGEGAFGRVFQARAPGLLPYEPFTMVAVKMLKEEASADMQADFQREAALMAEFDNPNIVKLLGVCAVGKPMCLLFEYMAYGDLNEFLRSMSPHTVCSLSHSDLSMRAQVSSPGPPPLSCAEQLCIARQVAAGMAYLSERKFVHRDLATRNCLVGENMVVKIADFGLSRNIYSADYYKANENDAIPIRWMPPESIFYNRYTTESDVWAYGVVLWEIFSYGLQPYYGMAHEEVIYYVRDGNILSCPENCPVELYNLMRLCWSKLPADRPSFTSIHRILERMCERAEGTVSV
- test.parameters: at 0.1 µM
reported.endpoint: inhibition
Write the quantity with the unit trailing the number.

Query: Look up inhibition for this compound: O=C(Nc1n[nH]c2cc(-c3ccccc3)ccc12)C1CC1
Result: -0.17%

Query: # inhibition lookup, item COc1cc2ncn(-c3cc(OCc4cccs4)c(C(N)=O)s3)c2cc1OC
Result: 4.86%

Query: Would you mind telling me what inhibition value was observed for Nc1nccc(-c2c(-c3ccc(F)cc3)ncn2C2CCC(O)CC2)n1 (stereo unspecified) ?
Result: 0.79%

Query: What value of inhibition has been recorded for this entry: CN(C)c1ccc2c(c1)/C(=C/Nc1ccc(S(N)(=O)=O)cc1)C(=O)N2
Result: 8.66%

Query: // returns reported inhibition for input CCN(CC)Cc1ccc(Nc2nccc(-c3cnn4ncccc34)n2)cc1
Result: 6.42%

Query: Which inhibition value is on record for CS(=O)(=O)CCNCc1cc(-c2cc3c(Nc4ccc(OCc5cccc(F)c5)c(Cl)c4)ncnc3s2)cs1 ?
Result: 2.43%

Query: // returns reported inhibition for input Cc1ccc(NC(=O)c2ccoc2)cc1-c1ccc(C(=O)NCC2CC2)cc1
Result: 0.54%

Query: Requested read-out: inhibition. Entry: COC(=O)Nc1nc2ccc(Sc3ccc(NC(=O)Nc4cc(C(F)(F)F)ccc4F)cc3)cc2[nH]1
Result: 32.2%

Query: Recorded inhibition for Fc1ccc(-c2nc3n(c2-c2ccncc2)CCS3)cc1 , please?
Result: 2.08%

Query: GET /values?readout=inhibition&item= C[C@@H](Oc1cc(-n2cnc3ccc(OCC4CCN(C)CC4)cc32)sc1C(N)=O)c1ccccc1Cl
Result: 41.5%

Query: If you can, please state the reported inhibition value of NC(=O)c1ccc(Oc2nccc(-c3c(-c4ccc(F)cc4)ncn3C3CCNCC3)n2)cc1 .
Result: 3.97%

Query: What does the record list as inhibition for CN(c1ccc(NC(=O)Nc2c(Cl)cccc2Cl)cc1)c1ccnc(Nc2cccc(CS(C)(=O)=O)c2)n1 ?
Result: 72.8%

Query: Request the reported inhibition associated with COc1ccc2ncn(-c3cc(O[C@H](C)c4ccccc4Cl)c(C(N)=O)s3)c2c1
Result: 2.62%

Query: Look up inhibition: C/C(Nc1ccc(S(N)(=O)=O)cc1)=C1/C(=O)Nc2ccccc21
Result: 3.8%

Query: Tell me the measured inhibition of O=C(Nc1n[nH]c2nc(-c3ccc(O)cc3)c(Br)cc12)C1CC1 , please.
Result: 4.48%

Query: // lookup inhibition for O=C1Nc2ccccc2/C1=C/Nc1ccc(-n2cncn2)cc1
Result: 3.92%

Query: Fill in: inhibition of CCS(=O)(=O)c1ccc(OC)c(Nc2ncc(-c3cccc(-c4ccccc4F)c3)o2)c1 is ___
Result: 2.39%

Query: Bench note: what inhibition did C[C@@H](Oc1cc(-n2cnc3ccc(OC4CCN(C)CC4)cc32)sc1C(N)=O)c1ccccc1Cl show?
Result: 7.63%

Query: Need inhibition, item FC(F)(F)c1cccc(Nc2nccc(-c3cnn4nc(-c5ccccc5)ccc34)n2)c1
Result: 1.03%

Query: // returns reported inhibition for input COc1ccc2cc(-c3c(-c4ccncc4)nc(-c4ccc([S+](C)[O-])cc4C)n3C)ccc2c1 (stereo unspecified)
Result: 0.94%

Query: Any idea what its inhibition is? The compound is CCS(=O)(=O)c1ccc(OC)c(Nc2ncc(-c3ccccc3Cl)o2)c1
Result: 4.75%

Query: Requested read-out: inhibition. Entry: Fc1ccc(-c2ncn(C3CCNCC3)c2-c2ccnc(Oc3ccc(Oc4ccccc4)cc3)n2)cc1
Result: 2.43%

Query: What inhibition value was documented for this compound, Clc1ccc(CNc2nccc(-c3cnn4ncccc34)n2)cc1 ?
Result: 3.18%

Query: Would you kindly share the measured inhibition for NC(=O)c1cc(-c2ccncc2)cc(-c2ccccc2)c1N ?
Result: 2.46%

Query: Which inhibition value belongs to CCc1cccc(CC)c1/C=C/c1cncc(C(=O)NC)c1 ?
Result: 3.82%

Query: Any idea what inhibition was measured for CCC(=O)Nc1ccc(C)c(-c2ccc(C(=O)NCC3CC3)cc2)c1 ?
Result: 1.96%

Query: Recorded inhibition of CN(C)CCCNc1nccc(-c2c(-c3ccc(F)cc3)nn3cc(C(F)(F)F)ccc23)n1 , please.
Result: 10.1%

Query: inhibition; subject: Fc1ccc(-c2c(-c3ccncc3)nc3n2CCS3)cc1
Result: 4.78%

Query: # input compound: COc1cc(Nc2ncc3c(C)nc(-c4cccc(C(F)(F)F)c4)n3n2)cc(OC)c1OC ; wanted: its inhibition
Result: 3.85%

Query: Field request: inhibition | item: NCc1ccc(-n2c(-c3nonc3N)nc3cnccc32)cc1
Result: 6.42%

Query: Recorded inhibition of NC(=O)c1cc(-c2ccc(F)cc2)cc(-c2ccncc2)c1N , please.
Result: 3.05%

Query: Would you kindly share the measured inhibition for O=C1Nc2ccc(I)cc2C1=Cc1cc(Br)c(O)c(Br)c1 ?
Result: 1.59%

Query: Entry COc1cc2ncn(-c3cc(OCCc4ccccc4)c(C(N)=O)s3)c2cc1OC has what inhibition?
Result: 2.9%

Query: Form field: reported inhibition of COc1cccc(-n2cnc3c(N/N=C/c4ccncc4)ncnc32)c1
Result: 2.4%

Query: Data request, read-out inhibition, for COc1cc(Nc2ncc3c(C)nc(-c4cccc(Oc5ccccc5)c4)n3n2)cc(OC)c1OC
Result: 1.49%

Query: Recorded inhibition of c1ccc(Oc2ccc(Nc3ncc(-c4ccccc4)o3)cc2)cc1 , please.
Result: 1.27%

Query: If you can, please state the reported inhibition value of Fc1ccc(-c2ncn(C3CCNCC3)c2-c2ccnc(Oc3ccc(F)c(F)c3)n2)cc1 .
Result: 2.92%

Query: I would be grateful if you could share the reported inhibition for COc1ccc(C2=C(N3CCc4ccccc43)C(=O)NC2=O)cc1 .
Result: 2.97%

Query: Sample NS(=O)(=O)c1ccc(N/N=C2\C(=O)Nc3ccc(C(=O)NCCCn4ccnc4)cc32)cc1 — what was its inhibition?
Result: 4.66%

Query: Recorded inhibition of N#Cc1ccc(Oc2nccc(-c3c(-c4ccc(F)cc4)ncn3C3CCNCC3)n2)cc1 , please.
Result: 1.86%

Query: Please report the recorded inhibition for COc1cc(C)c(N(C)C(=O)CN(C)C)cc1Nc1nc(Nc2cccc(F)c2C(N)=O)c2cc[nH]c2n1 .
Result: 1.6%
